System: LXFL 529 NSCLC
Assay Explanation: NCI tumour cell line growth inhibition, 48 h
// reported TGI per item

- Compound: "Cc1ccc(NC(=O)C2C(=O)N(c3ccc(C)c(C)c3)C(=O)/C2=N/O)cc1C (stereo not given)"
  Recorded Endpoint: "TGI"
  Reported Value: "> 100 µM"
- Compound: "CC1=CC(=O)NP(=O)(Oc2ccc(C)cc2)N1 (stereo not given)"
  Recorded Endpoint: "TGI"
  Reported Value: "> 100 µM"
- Compound: "N#CCCN(c1ccc(/C=C2\\N=C(c3ccc(Cl)cc3)OC2=O)cc1)S(=O)(=O)c1ccccc1"
  Recorded Endpoint: "TGI"
  Reported Value: "> 100 µM"
- Compound: "COC(=O)CSc1n[nH]c(-c2ccc(O)c([N+](=O)[O-])c2)n1"
  Recorded Endpoint: "TGI"
  Reported Value: "> 100 µM"
- Compound: "Cc1cc(NS(=O)(=O)c2ccc(NC(=O)c3cccc4c(=O)c5ccccc5[nH]c34)cc2)no1"
  Recorded Endpoint: "TGI"
  Reported Value: "89.2 µM"
- Compound: "O=S(O)CCCCSSCCCCSSCCCCS(=O)O"
  Recorded Endpoint: "TGI"
  Reported Value: "28.4 µM"

Consider the compound C#CC[C@]12CC(=O)CC[C@H]1CC(=O)C2 and give its measured TGI.
> 100 µM

And CCCCCCCCCCCCCCCCOP(=O)(O)Oc1ccc(/C=C\c2ccc(OP(=O)(O)OCCCCCCCCCCCCCCCC)cc2)cc1 ?
> 100 µM

And N#CCCN(CCC#N)c1ccc(/C=C2\N=C(CN3C(=O)c4ccccc4C3=O)OC2=O)cc1 ?
> 100 µM

And CCCN(CCCCC(NC(C)=O)C(=O)NCc1ccccc1)C(=O)N(CCCl)N=O (stereo not given) ?
> 100 µM

====

Test system: SR leukemia
Assay Explanation: NCI tumour cell line growth inhibition, 48 h
// reported GI50 per item

- Molecule: "CN1C(NC(=O)c2ccc(Cl)nc2)=NS(=O)(=O)c2cc(Cl)ccc21"
  GI50: "> 100000 nM"
- Molecule: "COc1ccc(S(=O)(=O)N(Cc2ccc3c(n2)C=CC(C)(C)O3)C2CCC2)cc1OC"
  GI50: "< 10 nM"

--- query ---
Consider the molecule CC(C)=[CH][Sb]([Br])([CH]=C(C)C)([CH]=C(C)C)[CH]=C(C)C and give its measured GI50.
10900 nM

====

// reported TGI per item
System: UACC-257 melanoma
Assay Explanation: NCI tumour cell line growth inhibition, 48 h

Consider the following illustrative entries.
- Compound: "O=P(O)(O)CN1CCN(CP(=O)(O)O)CCN(CP(=O)(O)O)CCN(CP(=O)(O)O)CC1"
  TGI: "> 100 µM"
- Compound: "Nc1ccc(C(=O)Nn2c(-c3ccccc3)nc3ccccc3c2=O)cc1"
  TGI: "> 100 µM"
- Compound: "CCOC(=O)Cn1sc2ncc([N+](=O)[O-])cc2c1=O"
  TGI: "31.6 µM"
- Compound: "COc1ccc(-n2cc(-c3cc(OC)c(OC)c(OC)c3)[nH]c2=S)cc1OC"
  TGI: "> 100 µM"
- Compound: "O=C(CNc1ccc(Cl)cc1)Nn1c(-c2ccccc2)nc2ccccc2c1=O"
  TGI: "33.2 µM"

Consider the compound CCOC(=O)NC(=O)c1cn(CCCOC(=O)NCCCCCCNC(=O)OCCCn2c(=O)c(C(=O)NC(=O)OCC)cn(C)c2=O)c(=O)n(C)c1=O and give its measured TGI.
> 100 µM

And COc1cc(C2c3cc4c(cc3[C@H](OCCN(C)C)[C@@H]3COC(=O)C23)OCO4)cc(OC)c1O (stereo not given in full) ?
11.4 µM

And O=C(CCc1ccc(O)cc1)NCCc1ccc(O)cc1 ?
> 100 µM

And Clc1ccc2c(NCCCCN=Cc3ccccc3)ccnc2c1 ?
26 µM

And Cn1cc(-c2csc(-c3cccc(F)c3)n2)c2cccnc21 ?
42.6 µM

And O=C(/C=C/c1ccccc1Cl)c1ccccc1Cl ?
60.4 µM

And CC(=O)NNc1nc(C)c(C(/C=C/c2cccc([N+](=O)[O-])c2)=N/NC(=S)NN)s1 ?
> 100 µM

====

System: PC-3 prostate
Assay Explanation: NCI tumour cell line growth inhibition, 48 h
Recorded Endpoint: TGI (µM)
Numbers only; they are read as µM.

- Structure String: "CC(C)(C)C1=CC(=CC=C2C=CN(CCCCCCCCCCCO)C=C2)C=C(C(C)(C)C)C1=O"
  TGI, µM: 3.68
- Structure String: "Cc1cccc2c(N)c3cccc(C(=O)NCCCNCCN)c3nc12"
  TGI, µM: 35.3
- Structure String: "COc1ccc(C(=O)/C=C/c2cccnc2Nc2cc(OC)c(OC)c(OC)c2)cc1"
  TGI, µM: 10.1

--- query ---
# query: TGI | item COc1ccc(S(=O)(=O)N(Cc2ccc3c(n2)C=CC(C)(C)O3)C2CCC2)cc1OC | system: PC-3 prostate
2.37

====

Test system: IGROV1 ovarian
Assay Explanation: NCI tumour cell line growth inhibition, 48 h
// reported TGI per item

- Compound: "Oc1ccc2ccccc2c1N=Nc1ccc(F)cc1"
  Reported Value: "> 100 µM"
- Compound: "COc1ccc(-n2c(SCc3cc(OC)c(OC)c(OC)c3)nc3ccc(C)cc3c2=O)cc1"
  Reported Value: "> 100 µM"
- Compound: "Cn1cc(C2=C(c3cn(C)c4c(N)cccc34)C(=O)NC2=O)c2ccccc21"
  Reported Value: "> 19.6 µM"
- Compound: "N#[O+].O=S(=O)([O-])[O-].[NH2-].[NH2-].[NH2-].[NH2-].[NH2-].[Ru+5]"
  Reported Value: "> 100 µM"
- Compound: "CN(C)/N=C(\\CCN1CCCC1)CC(c1ccccc1)c1c(O)c2ccccc2oc1=O (centres undefined)"
  Reported Value: "> 100 µM"
- Compound: "Cc1ccc(C(=O)/C=C/c2ccccc2O)c(C)c1"
  Reported Value: "> 100 µM"
- Compound: "CNC1C(=O)C(C)C(O)(C(CC(C)C(O)/C=C/C=C/CNC(=O)C(C)(C)C(O)\\C(C)=C/C=C\\C=C\\Cc2cnc(C)o2)OC)C12C(=O)OC2COC (centres undefined) (tested in a mixture with another compound)"
  Reported Value: "> 26.2 µM"
- Compound: "CC#CC(=O)Nc1ccccc1CC(c1c[nH]c2ccccc12)c1c[nH]c2ccccc12"
  Reported Value: "39.2 µM"
- Compound: "Nc1ccc(C(=O)Nn2c(-c3ccccc3)nc3ccccc3c2=O)cc1"
  Reported Value: "> 100 µM"
- Compound: "O=C(c1ccc(Cl)cc1Cl)N(C(=O)N1CCCCC1)c1ccccc1"
  Reported Value: "> 100 µM"

Consider the compound CCCCCCCCCCCCCCCCOP(=O)(O)Oc1ccc(/C=C\c2ccc(OP(=O)(O)OCCCCCCCCCCCCCCCC)cc2)cc1 and give its measured TGI.
> 100 µM

And COC(=O)C(=O)C(C(=O)C=C(C)C)C(=O)C(=O)Nc1ccc(Cl)cc1C (centres undefined) ?
> 100 µM

And Cc1cc(NS(=O)(=O)c2ccc(NC(=O)c3cccc4c(=O)c5ccccc5[nH]c34)cc2)no1 ?
> 100 µM

And C/C(=N\NC(=S)N1CC2CCC(CC2)C1)c1ccncn1 ?
3.78 µM

====

Test system: CAKI-1 renal
Assay Explanation: NCI tumour cell line growth inhibition, 48 h
// reported TGI per item

Consider the following illustrative entries.
- Compound: "N#CC1=C(N2CCCC2)NC(=O)CC1=O"
  System Under Test: "CAKI-1 renal"
  TGI: "> 100 µM"
- Compound: "Cc1cc(C)cc(Nc2cc(C)nc3nc(C(F)(F)F)nn23)c1"
  System Under Test: "CAKI-1 renal"
  TGI: "> 100 µM"
- Compound: "O=C(CCc1ccc(O)cc1)NCCc1ccc(O)cc1"
  System Under Test: "CAKI-1 renal"
  TGI: "> 100 µM"
- Compound: "CC(=O)SCCC1c2[nH]c3ccccc3c2CCN1O (stereo not drawn)"
  System Under Test: "CAKI-1 renal"
  TGI: "> 100 µM"
- Compound: "S=C(/N=c1/sc(Nc2ccccc2)nc2sc3c(c12)CCCC3)Nc1ccccc1"
  System Under Test: "CAKI-1 renal"
  TGI: "> 62.5 µM"

Consider the compound Cn1cc(C2=C(c3cn(C)c4c(N)cccc34)C(=O)NC2=O)c2ccccc21 and give its measured TGI.
> 25 µM

And O=c1[nH]nc(-c2cccc(Br)c2)[nH]1 ?
> 100 µM

And CCCCNC(=O)NS(=O)(=O)c1ccc(N2N=C(c3ccc(C)cc3C)CC2c2ccc(N(C)C)cc2)cc1 (stereo not drawn) ?
> 100 µM

And N#CCCN(CCC#N)c1ccc(/C=C2\N=C(CN3C(=O)c4ccccc4C3=O)OC2=O)cc1 ?
> 100 µM

And CC1CN=C(Nc2ccc(S(N)(=O)=O)cc2)S1 (stereo not drawn) ?
> 100 µM

And CO/N=C(\C(=O)Nc1cncs1)c1csc(NC(c2ccccc2)(c2ccccc2)c2ccccc2)n1 ?
> 10 µM
